Kindly state inhibition of growth at 0.8 µg/mL for each of the entries shown.
- Test system: Trypanosoma cruzi
- PROTOCOL DETAILS: Antiparasitic activity against Trypanosoma cruzi Tulahuen C4 intracellular amastigotes infected in rat L6 cells assessed as growth inhibition at 0.8 ug/ml after 96 hrs by CPRG/Nonidet reagent based photometric analysis relative to control
- Type: functional
- PROTOCOL CONDITIONS: Tulahuen C4, L6, 96 h, read-out: GI
Give a bare numeral; the unit % is implied.

inhibition of growth at 0.8 µg/mL for CC1Cc2ccccc2N1S(=O)(=O)c1ccc(C(C)(C)C)cc1 (centres undefined) ?
7.7

inhibition of growth at 0.8 µg/mL for CC1Cc2ccccc2N1S(=O)(=O)c1ccc(Cl)cc1 (centres undefined) ?
0

inhibition of growth at 0.8 µg/mL for "CC(C)(C)c1ccc(S(=O)(=O)n2nnc3ccccc32)cc1" ?
8.5

inhibition of growth at 0.8 µg/mL for CC1Cc2ccccc2N1S(=O)(=O)c1ccc(C(F)(F)F)cc1 (centres undefined) ?
0

inhibition of growth at 0.8 µg/mL for CC1Cc2ccccc2N1S(=O)(=O)c1ccccc1[N+](=O)[O-] (centres undefined) ?
0

inhibition of growth at 0.8 µg/mL for "Cc1ccc(S(=O)(=O)N2CCc3ccccc32)cc1" ?
0

inhibition of growth at 0.8 µg/mL for "O=S(=O)(c1ccccc1)N1CCc2ccccc21" ?
0

inhibition of growth at 0.8 µg/mL for "O=S(=O)(c1ccc(C(F)(F)F)cc1)N1CCc2ccccc21" ?
3.4

inhibition of growth at 0.8 µg/mL for "COc1ccc(S(=O)(=O)N2CCc3ccccc32)cc1" ?
12.1

inhibition of growth at 0.8 µg/mL for CC1Cc2ccccc2N1S(=O)(=O)c1ccccc1 (centres undefined) ?
0

inhibition of growth at 0.8 µg/mL for "CC(C)(C)c1ccc(S(=O)(=O)n2ccc3ccccc32)cc1" ?
0

inhibition of growth at 0.8 µg/mL for "O=[N+]([O-])c1ccc(S(=O)(=O)N2CCc3ccccc32)cc1" ?
34.7

inhibition of growth at 0.8 µg/mL for "Cc1cc(C)c(C)c(S(=O)(=O)n2ccc3ccccc32)c1C" ?
0.2

inhibition of growth at 0.8 µg/mL for "O=S(=O)(c1ccc(Br)cc1)N1CCc2ccccc21" ?
4.2

inhibition of growth at 0.8 µg/mL for "O=[N+]([O-])c1ccccc1S(=O)(=O)N1CCCc2ccccc21" ?
0

inhibition of growth at 0.8 µg/mL for "O=[N+]([O-])c1ccc(S(=O)(=O)n2ccc3ccccc32)cc1" ?
18.3

inhibition of growth at 0.8 µg/mL for CC1CCc2ccccc2N1S(=O)(=O)c1ccc(C(C)(C)C)cc1 (centres undefined) ?
28

inhibition of growth at 0.8 µg/mL for CC1CCc2ccccc2N1S(=O)(=O)c1ccccc1[N+](=O)[O-] (centres undefined) ?
7.6

inhibition of growth at 0.8 µg/mL for "Cc1cc(C)c(C)c(S(=O)(=O)N2CCCc3ccccc32)c1C" ?
15.5

inhibition of growth at 0.8 µg/mL for "Cc1cc(C)c(C)c(S(=O)(=O)N2CCc3ccccc32)c1C" ?
10.3

inhibition of growth at 0.8 µg/mL for "O=S(=O)(c1ccc(C(F)(F)F)cc1)n1ccc2ccccc21" ?
0

inhibition of growth at 0.8 µg/mL for "O=[N+]([O-])c1ccccc1S(=O)(=O)N1CCc2ccccc2C1" ?
3.1

inhibition of growth at 0.8 µg/mL for "CC(C)(C)c1ccc(S(=O)(=O)N2CCc3ccccc3C2)cc1" ?
0

inhibition of growth at 0.8 µg/mL for "O=S(=O)(c1cccc(C(F)(F)F)c1)N1CCCc2ccccc21" ?
10.4
